Target: T1, CD19 (UniProt P15391 20-556)
T1 chain: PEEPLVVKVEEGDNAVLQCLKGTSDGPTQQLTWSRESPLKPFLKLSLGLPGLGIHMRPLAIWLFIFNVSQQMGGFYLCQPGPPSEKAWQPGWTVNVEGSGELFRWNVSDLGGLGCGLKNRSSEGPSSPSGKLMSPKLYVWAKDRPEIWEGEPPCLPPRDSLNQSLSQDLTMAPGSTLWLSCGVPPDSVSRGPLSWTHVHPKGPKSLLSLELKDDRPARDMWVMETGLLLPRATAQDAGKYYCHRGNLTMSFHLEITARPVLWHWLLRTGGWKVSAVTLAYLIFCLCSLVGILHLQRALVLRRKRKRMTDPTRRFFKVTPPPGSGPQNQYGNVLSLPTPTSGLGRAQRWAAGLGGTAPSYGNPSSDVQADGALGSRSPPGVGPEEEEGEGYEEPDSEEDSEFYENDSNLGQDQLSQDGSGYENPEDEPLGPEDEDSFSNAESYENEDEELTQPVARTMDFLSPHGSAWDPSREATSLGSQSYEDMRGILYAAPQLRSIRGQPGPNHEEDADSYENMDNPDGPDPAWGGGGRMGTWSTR
Assay: flow cytometry cell binding; FIG. 5; WT switch (no PNE)
REPORTED_METRIC: pEC50
Entry type: numeric. Quantity: pEC50, the -log10 of concentration in molar units.

hFMCL2/H3 WT (antibody, V domains shown) VH: QVQLQESGPGLVKPSETLSVTCTVSGVSLPDYGVSWIRQPPGKGLEWLGVIWGSETTYYNPSLKSRLTISKDNSKNQVSLKMSSLTAADTAVYYCARHYYYGGSYAMDYWGQGTLVTVSS VL: DIQMTQSPSSLSASVGDRVTITCRASQDISKYLNWYQQKPGKAPKLLIYHTSRLHSGVPSRFSGSGSGTDYTLTISSLQPEDFATYYCQQGATLPYTFGQGTKLEIK ... 7.62
hFMCL2/H4a WT (antibody, V domains shown) VH: QVQLQESGPGLVKPSETLSVTCTVSGVSLPDYGVSWIRQPPGKGLEWLGVIWGSETTYYNPSLKSRLTISKDTSKNQVSLKMSSLTAADTAVYYCAKHYYYGGSYAMDYWGQGTLVTVSS VL: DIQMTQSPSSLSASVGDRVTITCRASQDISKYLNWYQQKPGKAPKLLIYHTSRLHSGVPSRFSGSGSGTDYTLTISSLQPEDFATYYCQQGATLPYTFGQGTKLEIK ... 8.18
hFMCL2/H2 WT (antibody, V domains shown) VH: QVQLQESGPGLVKPSETLSVTCTVSGVSLPDYGVSWIRQPPGKGLEWLGVIWGSETTYYNPSLKSRLTISKDTSKNQVSLKMSSLTAADTAVYYCARHYYYGGSYAMDYWGQGTLVTVSS VL: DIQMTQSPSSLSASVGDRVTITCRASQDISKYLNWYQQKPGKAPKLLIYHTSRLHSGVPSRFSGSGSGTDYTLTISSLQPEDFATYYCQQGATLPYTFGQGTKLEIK ... 7.34

Please turn your attention to the following entry.
Recall and state the measured pEC50 for hFMCL2/H4b WT (antibody, V domains shown) VH: QVQLQESGPGLVKPSETLSVTCTVSGVSLPDYGVSWIRQPPGKGLEWLGVIWGSETTYYNPSLKSRLTISKDNSKNQVSLKMSSLTAADTAVYYCAKHYYYGGSYAMDYWGQGTLVTVSS VL: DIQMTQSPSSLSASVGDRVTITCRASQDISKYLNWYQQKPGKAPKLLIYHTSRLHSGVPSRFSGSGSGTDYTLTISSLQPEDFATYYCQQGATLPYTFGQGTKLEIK .
8.38
